Kindly supply the reported moisture content (%) values for the records listed here.
- test method notes: Determination of moisture contents with KF moisture meter at different time points
- Type: physicochemical
- test context: temperature 23° C., humidity 92.5%, 2 h
Give bare numbers, in %.

Use the examples below as a reference point.
compound: CC(O)CC(=O)O.CC(O)CC(=O)[O-].[K+] (centres unmarked)
readout value: 1.93
//
compound: CC[C@@H](O)CC(=O)O [R-3-hydroxypentanoic acid]
readout value: 3.30
//
compound: C[C@@H](O)CC(=O)[O-].[K+] [Potassium R-3-hydroxybutyrate, potassium R-3-hydroxybutyrate]
readout value: 3.19
//
compound: C[C@@H](O)CC(=O)O.C[C@@H](O)CC(=O)[O-].C[C@@H](O)CC(=O)[O-].[Ca+2]
readout value: 1.96
//
compound: C[C@H](O)CC(=O)[O-].C[C@H](O)CC(=O)[O-].[Ca+2] [Calcium S-3-hydroxybutyrate, calcium S-3-hydroxybutyrate]
readout value: 2.25

Here are 6 compounds. What values of moisture content (%) were reported for them?
1. C[C@H](O)CC(=O)O.C[C@H](O)CC(=O)[O-].[K+]
2. CC[C@@H](O)CC(=O)O.CC[C@@H](O)CC(=O)[O-].[Na+]
3. C[C@@H](O)CC(=O)O.C[C@@H](O)CC(=O)[O-].C[C@@H](O)CC(=O)[O-].[Mg+2]
4. C[C@H](O)CC(=O)[O-].C[C@H](O)CC(=O)[O-].[Mg+2] [Magnesium S-3-hydroxybutyrate, magnesium S-3-hydroxybutyrate]
5. C[C@H](O)CC(=O)[O-].[K+] [Potassium S-3-hydroxybutyrate, potassium S-3-hydroxybutyrate]
6. CC(O)CC(=O)O.CC(O)CC(=O)[O-].CC(O)CC(=O)[O-].[Ca+2] (centres unmarked)

# output
196
1.63
1.76
2.43
3.22
1.86

Here are 4 compounds. What values of moisture content (%) were reported for them?
1. CCC(O)CC(=O)O.CCC(O)CC(=O)[O-].[Na+] (centres unmarked)
2. CCC(O)CC(=O)O (centres unmarked) [3-hydroxypentanoic acid]
3. C[C@H](O)CC(=O)O [S-3-hydroxybutyric acid]
4. CC[C@H](O)CC(=O)[O-].[Na+] [Sodium S-3-hydroxypentanoate, sodium S-3-hydroxypentanoate]

# output
1: 1.71; 2: 3.46; 3: 4.05; 4: 2.91

Here are 7 compounds. What values of moisture content (%) were reported for them?
1. CCC(O)CC(=O)[O-].[Na+] (centres unmarked) [Sodium 3-hydroxypentanoate, sodium 3-hydroxypentanoate]
2. C[C@H](O)CC(=O)O.C[C@H](O)CC(=O)[O-].C[C@H](O)CC(=O)[O-].[Ca+2]
3. CC[C@H](O)CC(=O)O [S-3-hydroxypentanoic acid]
4. C[C@@H](O)CC(=O)O.C[C@@H](O)CC(=O)[O-].[K+]
5. CC[C@@H](O)CC(=O)[O-].[Na+] [Sodium R-3-hydroxypentanoate, sodium R-3-hydroxypentanoate]
6. CC(O)CC(=O)O.CC(O)CC(=O)[O-].CC(O)CC(=O)[O-].[Mg+2] (centres unmarked)
7. C[C@H](O)CC(=O)O.C[C@H](O)CC(=O)[O-].C[C@H](O)CC(=O)[O-].[Mg+2]

# output
1. 3.02
2. 1.88
3. 3.38
4. 1.89
5. 2.83
6. 1.82
7. 1.79

Here are 4 compounds. What values of moisture content (%) were reported for them?
1. CC[C@H](O)CC(=O)O.CC[C@H](O)CC(=O)[O-].[Na+]
2. CC(O)CC(=O)O (centres unmarked) [3-hydroxybutyric acid]
3. C[C@@H](O)CC(=O)O [R-3-hydroxybutyric acid]
4. CC(O)CC(=O)[O-].[K+] (centres unmarked) [Potassium 3-hydroxybutyrate, potassium 3-hydroxybutyrate]

# output
1: 1.54; 2: 4.15; 3: 3.96; 4: 3.22

###

- test method notes: Determination of moisture contents with KF moisture meter at different time points
- Type: physicochemical
- test context: temperature 23° C., humidity 92.5%, 1 h
result type: moisture content (%)
Enter the number, and then the unit.

Use the examples below as a reference point.
molecule: C[C@@H](O)CC(=O)O.C[C@@H](O)CC(=O)[O-].[K+]
readout value: 1.24%

molecule: C[C@H](O)CC(=O)O.C[C@H](O)CC(=O)[O-].C[C@H](O)CC(=O)[O-].[Ca+2]
readout value: 0.98%

Here are 7 molecules. What values of moisture content (%) were reported for them?
1. CCC(O)CC(=O)[O-].[Na+] (stereo not shown) [Sodium 3-hydroxypentanoate, sodium 3-hydroxypentanoate]
2. CCC(O)CC(=O)O.CCC(O)CC(=O)[O-].[Na+] (stereo not shown)
3. CC(O)CC(=O)O.CC(O)CC(=O)[O-].CC(O)CC(=O)[O-].[Mg+2] (stereo not shown)
4. CC(O)CC(=O)O (stereo not shown) [3-hydroxybutyric acid]
5. C[C@H](O)CC(=O)O.C[C@H](O)CC(=O)[O-].C[C@H](O)CC(=O)[O-].[Mg+2]
6. CC[C@@H](O)CC(=O)[O-].[Na+] [Sodium R-3-hydroxypentanoate, sodium R-3-hydroxypentanoate]
7. CC[C@H](O)CC(=O)[O-].[Na+] [Sodium S-3-hydroxypentanoate, sodium S-3-hydroxypentanoate]

# output
1: 1.83%; 2: 0.98%; 3: 0.97%; 4: 2.37%; 5: 0.98%; 6: 1.68%; 7: 1.73%

Here are 3 molecules. What values of moisture content (%) were reported for them?
1. CC[C@@H](O)CC(=O)O.CC[C@@H](O)CC(=O)[O-].[Na+]
2. C[C@@H](O)CC(=O)O.C[C@@H](O)CC(=O)[O-].C[C@@H](O)CC(=O)[O-].[Ca+2]
3. C[C@@H](O)CC(=O)O [R-3-hydroxybutyric acid]

# output
["0.85%", "1.02%", "2.25%"]

Here are 2 molecules. What values of moisture content (%) were reported for them?
1. CC[C@H](O)CC(=O)O.CC[C@H](O)CC(=O)[O-].[Na+]
2. C[C@H](O)CC(=O)O.C[C@H](O)CC(=O)[O-].[K+]

# output
1. 1.15%
2. 1.34%

Here are 5 molecules. What values of moisture content (%) were reported for them?
1. C[C@H](O)CC(=O)[O-].[K+] [Potassium S-3-hydroxybutyrate, potassium S-3-hydroxybutyrate]
2. CC(O)CC(=O)O.CC(O)CC(=O)[O-].[K+] (stereo not shown)
3. CC[C@@H](O)CC(=O)O [R-3-hydroxypentanoic acid]
4. C[C@H](O)CC(=O)[O-].C[C@H](O)CC(=O)[O-].[Ca+2] [Calcium S-3-hydroxybutyrate, calcium S-3-hydroxybutyrate]
5. C[C@H](O)CC(=O)O [S-3-hydroxybutyric acid]

# output
["1.92%", "1.28%", "1.88%", "1.92%", "2.28%"]

###

Kindly supply the reported moisture content (%) values for the records listed here.
- test method notes: Determination of moisture contents with KF moisture meter at different time points
- Type: physicochemical
- test context: temperature 23° C., humidity 92.5%, 6 h
Answers are plain numbers, in %.

Use the examples below as a reference point.
compound: C[C@@H](O)CC(=O)O.C[C@@H](O)CC(=O)[O-].C[C@@H](O)CC(=O)[O-].[Ca+2]
readout value: 4.79

compound: CCC(O)CC(=O)[O-].[Na+] (centres unmarked) [Sodium 3-hydroxypentanoate, sodium 3-hydroxypentanoate]
readout value: 6.28

Here are 2 compounds. What values of moisture content (%) were reported for them?
1. C[C@H](O)CC(=O)O.C[C@H](O)CC(=O)[O-].C[C@H](O)CC(=O)[O-].[Ca+2]
2. CC[C@@H](O)CC(=O)[O-].[Na+] [Sodium R-3-hydroxypentanoate, sodium R-3-hydroxypentanoate]

# output
4.47
6.13

###

- test method notes: Determination of moisture contents with KF moisture meter at different time points
- Assay type: physicochemical
- test context: temperature 23° C., humidity 92.5%, 7 h
- Text: For R-3-hydroxybutyric acid, potassium R-3-hydroxybutyrate, mixture of R-3-hydroxybutyric acid and potassium R-3-hydroxybutyrate, and R-3-hydroxybutyric acid·potassium R-3-hydroxybutyrate complex of Example 1, under a certain condition, KF moisture meter was used to determine the moisture contents at different time points. […]
result type: moisture content (%)
One number for each entry, in %.

compound: CC(O)CC(=O)O.CC(O)CC(=O)[O-].[K+] (centres unmarked)
result type: moisture content (%)
readout value: 6.84

compound: C[C@H](O)CC(=O)[O-].C[C@H](O)CC(=O)[O-].[Ca+2] [Calcium S-3-hydroxybutyrate, calcium S-3-hydroxybutyrate]
result type: moisture content (%)
readout value: 6.25

compound: CC[C@H](O)CC(=O)[O-].[Na+] [Sodium S-3-hydroxypentanoate, sodium S-3-hydroxypentanoate]
result type: moisture content (%)
readout value: 6.79

compound: CCC(O)CC(=O)[O-].[Na+] (centres unmarked) [Sodium 3-hydroxypentanoate, sodium 3-hydroxypentanoate]
result type: moisture content (%)
readout value: 6.96

compound: CC[C@@H](O)CC(=O)[O-].[Na+] [Sodium R-3-hydroxypentanoate, sodium R-3-hydroxypentanoate]
result type: moisture content (%)
readout value: 6.70

compound: CCC(O)CC(=O)O.CCC(O)CC(=O)[O-].[Na+] (centres unmarked)
result type: moisture content (%)
readout value: 4.60

compound: C[C@H](O)CC(=O)O [S-3-hydroxybutyric acid]
result type: moisture content (%)
readout value: 10.62

Sure, the documented moisture content (%) for C[C@H](O)CC(=O)O.C[C@H](O)CC(=O)[O-].[K+] is 6.82
